Where these numbers come from: paper PMC8198649

So I've got Ki readings for MAO-B (Homo sapiens), take a look.

>>> print(df.to_string())
                                   compound  value_measured
0  CCOc1ccc(C2=NNC(c3ccc(F)cc3)C2)cc1 (centres unmarked) [EH7]           34 nM

Now consider the entry below.
Input: Lab note: need Ki with MAO-B (Homo sapiens) for entry CCOc1ccc(C2=NNC(c3ccc(Cl)cc3)C2)cc1 (centres unmarked) [EH6] , please look it up.
Sequence (P27338 whole entry): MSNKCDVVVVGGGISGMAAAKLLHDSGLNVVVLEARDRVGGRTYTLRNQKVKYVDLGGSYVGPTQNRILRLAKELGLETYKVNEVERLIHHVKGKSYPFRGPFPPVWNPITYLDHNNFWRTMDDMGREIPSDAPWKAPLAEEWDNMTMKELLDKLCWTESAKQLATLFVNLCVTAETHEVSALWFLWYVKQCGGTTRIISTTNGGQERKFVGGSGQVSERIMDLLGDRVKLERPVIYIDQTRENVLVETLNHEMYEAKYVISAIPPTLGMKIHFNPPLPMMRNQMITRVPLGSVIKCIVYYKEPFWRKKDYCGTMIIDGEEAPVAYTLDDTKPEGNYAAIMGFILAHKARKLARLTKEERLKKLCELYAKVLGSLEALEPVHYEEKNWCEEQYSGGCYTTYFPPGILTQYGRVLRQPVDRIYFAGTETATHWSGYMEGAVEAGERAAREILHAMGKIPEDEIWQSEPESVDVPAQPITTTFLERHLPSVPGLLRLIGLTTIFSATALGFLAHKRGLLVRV
Output: 190 nM

====

// reported remaining activity at 10 µM for each item listed
- system-under-test: recombinant human MAO-A (Homo sapiens, UniProt P21397)
- Construct: purchased Sigma-Aldrich (St. Louis, MO, USA)
- Sequence (P21397 whole entry): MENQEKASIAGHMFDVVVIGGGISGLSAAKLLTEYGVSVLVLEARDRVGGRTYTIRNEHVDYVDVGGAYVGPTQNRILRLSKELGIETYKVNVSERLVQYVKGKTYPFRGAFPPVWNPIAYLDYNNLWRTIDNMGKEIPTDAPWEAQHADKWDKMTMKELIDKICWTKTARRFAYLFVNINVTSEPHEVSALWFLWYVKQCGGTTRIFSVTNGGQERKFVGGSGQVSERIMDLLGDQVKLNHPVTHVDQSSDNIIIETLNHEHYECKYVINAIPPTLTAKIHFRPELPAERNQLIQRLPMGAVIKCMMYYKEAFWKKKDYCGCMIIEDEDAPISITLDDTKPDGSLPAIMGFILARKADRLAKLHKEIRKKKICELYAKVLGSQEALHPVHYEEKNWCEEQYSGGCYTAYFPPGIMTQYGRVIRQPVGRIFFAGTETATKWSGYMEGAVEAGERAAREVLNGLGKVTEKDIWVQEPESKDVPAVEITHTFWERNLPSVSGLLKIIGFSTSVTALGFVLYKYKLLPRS
- assay-explanation: MAO-A inhibition assay (kynuramine substrate) and kinetics
- Assay type: biochemical
- study-conditions: 10 µM compound; read-out: Residual Activity at 10 µM (%) MAO-A

In [3]: df
Out[3]:
                                   compound                         system_under_test  value_measured
0  CCOc1ccc(C2=NNC(c3ccc(Br)cc3)C2)cc1 (stereo not shown)  recombinant human MAO-A (Homo sapiens, UniProt P21397)           33.5%
1  CCOc1ccc(C2=NNC(c3ccc(Cl)cc3)C2)cc1 (stereo not shown)  recombinant human MAO-A (Homo sapiens, UniProt P21397)           68.1%
2  CCOc1ccc(C2=NNC(c3ccc(F)cc3)C2)cc1 (stereo not shown)  recombinant human MAO-A (Homo sapiens, UniProt P21397)           46.9%

Input: May I ask what remaining activity at 10 µM has been recorded for CCOc1ccc(C2=NNC(c3ccccc3)C2)cc1 (stereo not shown) ?
Output: 99.1%

====

IC50 by entry:
- system-under-test: recombinant human MAO-A (Homo sapiens, UniProt P21397)
- Construct: purchased Sigma-Aldrich (St. Louis, MO, USA)
- assay-explanation: MAO-A inhibition assay (kynuramine substrate) and kinetics
- Format: biochemical
- study-conditions: reference compounds after preincubation for 30 min with enzymes
// note: answer is a bare numeric in µM

// known answers, use as guide
In [3]: df
Out[3]:
                                   compound  value_measured
0  CCOc1ccc(C2=NNC(c3ccc(F)cc3)C2)cc1 (stereo not shown)            8.38
1  CCOc1ccc(C2=NNC(c3ccc(Cl)cc3)C2)cc1 (stereo not shown)            22.3

Now for a further compound.
Input: Given the entry CCOc1ccc(C2=NNC(c3ccc(Br)cc3)C2)cc1 (stereo not shown) , what IC50 was observed with recombinant human MAO-A (Homo sapiens, UniProt P21397)?
Output: 4.31

====

The following molecules are listed with their measured IC50 values.
- system-under-test: MAO-B (Homo sapiens)
- Construct: purchased Sigma-Aldrich (St. Louis, MO, USA)
- assay-explanation: MAO-B inhibition assay (benzylamine substrate) and kinetics
- Assay type: biochemical
- study-conditions: reference compounds after preincubation for 30 min with enzymes
Numeric only. Scale: µM

>>> df
                                   molecule  readout_unit  value_measured
0  CCOc1ccc(C2=NNC(c3ccccc3)C2)cc1 (stereo not shown) [EH1]            µM            5.38
1  CCOc1ccc(C2=NNC(c3ccc(Cl)cc3)C2)cc1 (stereo not shown) [EH6]            µM             0.4
2  CCOc1ccc(C2=NNC(c3ccc(Br)cc3)C2)cc1 (stereo not shown) [EH8]            µM            0.69

# context switch: different molecule, same IC50
Input: Given the entry CCOc1ccc(C2=NNC(c3ccc(F)cc3)C2)cc1 (stereo not shown) [EH7] , what IC50 was observed with MAO-B (Homo sapiens)?
Output: 0.063
